Data origin, for the record: ChEMBL document CHEMBL1201862

Test system: CCRF-CEM
Experiment: NCI tumour cell line growth inhibition, 48 h
The source made the active and inactive calls. No stated cut-off is given here; in the data, active = GI50 up to about 1.1 µM and inactive = higher. *1 amine or outer side, *2 acyl side, *3 side chain or, on linkers, in order; H or OH if unused. Where a SMILES comes first, the peptide text is derived from it. Bridges are numbered along the chain shown (N, C = ends). Roman numbers before positions name the chains, in order. [ ]: non-standard residue; d: D form. Actinocin(9to1) = Cc1c2oc3c(C)ccc(C(=O)[*:1])c3nc-2c(C(=O)[*:2])c(N)c1=O; NMeV = CN[CH](C(=O)O)C(C)C; Sar = CNCC(=O)O
Return exactly one item of active, inactive

IN: Could you please tell me the result logged for CC(=O)NC1C(OCc2ccccc2)OC(CO)C(O)C1OCC(=O)N[C@@H](C)C(=O)N[C@H](CCC(=O)NCCCNc1ccc([N+](=O)[O-])c2[nH]c3ccccc3c(=O)c12)C(N)=O (stereo partly specified) in this assay?
OUT: inactive

IN: Returns: the outcome recorded for O[C@H]1[C@H](O)[C@@H](Cn2nnc(-c3ccccc3)c2-c2ccccc2)OCO[C@@H]1Cn1nnc(-c2ccccc2)c1-c1ccccc1 in this assay.
OUT: inactive

IN: Kindly provide the recorded test outcome for the following compound: Cc1ccc(S(=O)(=O)N2CCCSCC2)cc1
OUT: inactive

IN: What call does the record list for Cc1ccc(/C=N/NS(=O)(=O)c2ccc(/C=C3\NC(=O)NC3=O)cc2)cc1 ?
OUT: inactive

IN: Check the results log: what was the call for COCn1c(C)c(C)c2c(=O)oc(=O)[nH]c21 ?
OUT: inactive

IN: Test call, this compound: Cc1c(C(=O)/C=C/c2ccc([N+](=O)[O-])cc2)[n+]([O-])c2ccccc2[n+]1[O-]
OUT: inactive

IN: Could you please tell me the result logged for CC(C)c1cc(=O)[nH]c2cc(N)ccc12 in this assay?
OUT: inactive

IN: What call does the record list for Cc1c2oc3c(C)ccc(C(=O)NC4C(=O)NC(Cc5ccccc5)C(=O)N5CCCC5C(=O)N(C)CC(=O)N(C)C(C(C)C)C(=O)OC4C)c3nc-2c(C(=O)NC2C(=O)NC(Cc3ccccc3)C(=O)N3CCCC3C(=O)N(C)CC(=O)N(C)C(C(C)C)C(=O)OC2C)c(N)c1=O (stereo unspecified) (I: TFP[Sar][NMeV] / II: TFP[Sar][NMeV]; ester I:1-I:C, II:1-II:C; linker I:N-II:N via Actinocin(9to1); configuration not given here) ?
OUT: active

IN: So what was the verdict on COc1cc(O)c2c(=O)cc(C3(OC(C)=O)C=CC(OC4OC(CO)C(O)C(O)C4O)C=C3)oc2c1 (stereo unspecified) in this test?
OUT: inactive

IN: Dear all, I need the recorded test outcome for O=C(CCC(=O)Nc1ccc(Cl)c(Cl)c1)Cc1nc2ccccc2o1 , thank you.
OUT: inactive

IN: What outcome does the record of this test show for CC(=O)OC1CCC2OOC1O2 (stereo unspecified) ?
OUT: inactive

IN: Would you mind telling me which call this test gave CN(C)c1ccc(-c2c(C#N)c(S)n(NS(=O)(=O)c3ccccc3)c(=O)c2C#N)cc1 ?
OUT: inactive

IN: Recorded call for O=C(O)CCC1(Br)CCCCC(Br)C1=O (stereo unspecified) ?
OUT: inactive

IN: For COc1ccc(-c2c(C(=O)Nc3ccccc3)c(-c3ccccc3)n(C3OC(CO)C(O)C(O)C3O)c(=S)c2C#N)cc1 (stereo unspecified) , what call appears in the results of this test?
OUT: inactive

IN: How was COc1ccc2c(c1OCC(=O)O)C(=O)C(CCC(=O)O)CC2 (stereo unspecified) classified in this test?
OUT: inactive

IN: Fill in: this test's call for COc1ccc(OC/C(N)=N/NC(=O)c2ccncc2)cc1 is ___
OUT: inactive

* * *

Consider the following molecules; for each one, report its GI50.
System: HOP-18
Test: NCI tumour cell line growth inhibition, 48 h
Calls of active or inactive are those of the source. Rule as the data show it: active = GI50 up to about 1.1 µM and inactive = higher.

IN: Query GI50 on HOP-18 for O=C(O)[C@H](NS(=O)(=O)c1ccc([N+](=O)[O-])cc1)c1ccccc1
OUT: > 100 µM (inactive)

IN: State its GI50 on HOP-18: COC(=O)C(=O)C(C(=O)C(=O)Nc1ccccc1C(N)=O)c1nc2ccc(C(=O)c3ccccc3)cc2nc1O (centres undefined)
OUT: 37.1 µM (inactive)

IN: I'm curious: which GI50 was measured for CC(CCC(=O)O)c1ccc(Br)cc1 (centres undefined) tested on HOP-18?
OUT: > 100 µM (inactive)

IN: Item COC[C@@H](Cc1ccc(OC)c(OC)c1)[C@@H](COC)Cc1ccc(OC)c(OC)c1 with HOP-18 - GI50?
OUT: > 100 µM (inactive)

IN: Give HOP-18 GI50 for COc1cc(OC)c(/C=C2\N=C(C)N(Nc3nnc(NN4C(=O)/C(=C/c5c(OC)cc(OC)cc5OC)N=C4C)c4ccccc34)C2=O)c(OC)c1
OUT: > 100 µM (inactive)

IN: Lab request: please report GI50 under test system HOP-18 for O=[N+]([O-])c1cc(I)cc(/C=N/NS(=O)(=O)c2ccc(Cl)cc2)c1O
OUT: 19.1 µM (inactive)

IN: Short answer please: GI50, HOP-18, entry COc1ccc([Se][Se]c2ccc(OC)cc2OC)c(OC)c1
OUT: 1.97 µM (inactive)

IN: Reported GI50 for HOP-18, given COc1ccc(C2C(C(=O)O)=C(COC(C)=O)Oc3cc4c(cc32)OCO4)c(OC)c1 (centres undefined) ?
OUT: > 100 µM (inactive)

IN: # get_value(readout= GI50, system= HOP-18) for O=C(O)CCNS(=O)(=O)c1ccc2ccccc2c1
OUT: > 100 µM (inactive)

IN: Give GI50 (HOP-18) of the following molecule: N/N=C(/Cc1nc2ccc(C(=O)c3ccccc3)cc2nc1O)C(=O)Nc1ccc([N+](=O)[O-])cc1[N+](=O)[O-]
OUT: 35.5 µM (inactive)

IN: Hello, I am looking for reported GI50 with HOP-18 for CC(C)C(Nc1c2ccccc2[n+](C)c2ccccc12)C(=O)O (centres undefined) . Could you help?
OUT: > 100 µM (inactive)

IN: Param readout= GI50; system= HOP-18; entry= CC(C)N(C(=O)C12C3C4C5C3C1(C(=O)N(C(C)C)C(C)C)C5(C#N)C42)C(C)C (centres undefined) ; returns value.
OUT: > 100 µM (inactive)

IN: Kindly state the measured GI50 obtained for [O-][N+]1=C(c2ccccc2)COc2ccccc21 with HOP-18.
OUT: > 100 µM (inactive)

IN: # get_value(readout= GI50, system= HOP-18) for COC(=O)/C([Se]c1c(C)cc(C)cc1C)=C(\[Se]c1c(C)cc(C)cc1C)C(=O)OC
OUT: > 100 µM (inactive)

IN: Tell me reported GI50 for NC1=NCN(C2OC(CO)C(O)C2O)C(=O)N1 (centres undefined) , tested with HOP-18.
OUT: 22.4 µM (inactive)

IN: I'm curious: which GI50 was measured for Nc1cc2[nH]cnc2c(=O)[nH]1 [DEZAGUANINE] tested on HOP-18?
OUT: > 121 µM (inactive)

IN: Lab note: need GI50 for CC(C)(Br)C1(O)CCCN1C(=O)c1ccccc1 (centres undefined) on HOP-18, anyone have it?
OUT: > 100 µM (inactive)

IN: Recall the recorded GI50 for O=C(O)CCC1(Br)CCCCC(Br)C1=O (centres undefined) with HOP-18 and state it.
OUT: 32.8 µM (inactive)

IN: Give HOP-18 GI50 for CCCn1cc2c3c(cccc31)C1C=C(C)CN(C)C1C2 (centres undefined)
OUT: 13.7 µM (inactive)

IN: Request: GI50, test system HOP-18, entry C[C@]12Cc3conc3C(O)=C1CC[C@@H]1C2CC[C@@]2(C)C1CC[C@@H]2O (some centres undefined)
OUT: 41 µM (inactive)

IN: Give GI50 (HOP-18) of the following molecule: NCCn1cnc2nc(NC(=O)c3ccccc3)[nH]c(=O)c21
OUT: > 100 µM (inactive)

IN: # returns recorded GI50 (system: HOP-18) for Nc1ccc(C(=O)CC2(O)C(=O)Nc3c(Cl)cc(Cl)cc32)cc1 (centres undefined)
OUT: 90.6 µM (inactive)

IN: Form field - read-out: GI50; system: HOP-18; submitted item: COc1cc(Cc2nccc3cc(OC)c(OC)cc23)c(C(C)=O)cc1OC
OUT: > 300 µM (inactive)

IN: For HOP-18, provide GI50 of Cn1cc2ccccc2c1-c1nc(F)nc(Oc2ccc3c(c2)CC[C@@H]2C3CC[C@]3(C)C(O)CCC23)n1 (some centres undefined) please.
OUT: 15.3 µM (inactive)

IN: Quick check: GI50 on HOP-18, item C/C(=N\NC(N)=O)c1sc(-c2nc(C)c(/C(C)=N/NC(N)=O)s2)nc1C ?
OUT: > 100 µM (inactive)

IN: Quick check: GI50 on HOP-18, item COC(=O)/C=C/C(=O)C1C(C(=O)OC)C2(C(=O)OC)CCC1(C(=O)OC)N2 (centres undefined) ?
OUT: > 100 µM (inactive)

IN: # returns recorded GI50 (system: HOP-18) for COc1cccc2c1c1ccc3c(c1n2C)C(=O)C=CC3=O
OUT: 14.1 µM (inactive)

IN: Observed GI50 on HOP-18 for O=C(O)C12C3C4C1C1C2C3C1(Br)C41OCCO1 (centres undefined) , please.
OUT: > 100 µM (inactive)

IN: GI50 of Cc1c(C(=O)/C=C/c2ccc([N+](=O)[O-])cc2)[n+]([O-])c2ccccc2[n+]1[O-] on HOP-18?
OUT: > 100 µM (inactive)
